assayTarget: Env of HIV-1 strain YU2.DG (HIV-1)
methodSummary: cell-based or functional assay
measuredEndpoint: neutralization IC50 (µg/mL)

INSERT INTO results (binder, measuredendpoint, relationsymbol, val) VALUES
  ('γ20κ11 (antibody, V domains shown) VH: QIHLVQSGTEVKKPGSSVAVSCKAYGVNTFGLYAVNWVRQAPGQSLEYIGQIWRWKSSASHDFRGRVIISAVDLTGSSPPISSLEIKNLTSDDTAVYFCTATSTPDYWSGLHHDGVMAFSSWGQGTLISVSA VL: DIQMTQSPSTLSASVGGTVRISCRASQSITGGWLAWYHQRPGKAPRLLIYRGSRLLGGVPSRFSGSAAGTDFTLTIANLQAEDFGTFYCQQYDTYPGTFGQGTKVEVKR', 'neutralization IC50', '>', 15),
  ('8ANC3430 (antibody, V domains shown) VH: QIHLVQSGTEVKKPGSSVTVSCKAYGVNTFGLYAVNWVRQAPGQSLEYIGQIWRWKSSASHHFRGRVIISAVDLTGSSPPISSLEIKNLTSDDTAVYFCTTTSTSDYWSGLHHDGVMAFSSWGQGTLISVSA VL: DIQMTQSPSTLSASVGDTVRISCRASQSITGGWLAWYHQRPGKAPRLLIYRGSRLLGGVPSRFSGSAAGTDFTLTIANLQAEDFGTFYCQQYDTYPGTFGQGTKVEVKR', 'neutralization IC50', '=', 0.545),
  ('γ52κ11 (antibody, V domains shown) VH: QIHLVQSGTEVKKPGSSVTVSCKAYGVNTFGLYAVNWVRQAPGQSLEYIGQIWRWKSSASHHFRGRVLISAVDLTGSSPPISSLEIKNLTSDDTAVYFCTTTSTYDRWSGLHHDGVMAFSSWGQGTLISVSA VL: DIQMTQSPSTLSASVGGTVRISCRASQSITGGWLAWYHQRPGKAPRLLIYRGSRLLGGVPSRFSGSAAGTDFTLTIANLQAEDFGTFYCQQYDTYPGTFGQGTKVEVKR', 'neutralization IC50', '=', 0.298);

Source: patent US20180171001A1
